Please respond with reported pIC50 for every item in the list.
- tested-system: Receptor-type tyrosine-protein kinase FLT3 (Homo sapiens, UniProt P36888, ITD)
- Sequence (P36888 whole entry, looked up, stated change not applied, the tested form may be a part): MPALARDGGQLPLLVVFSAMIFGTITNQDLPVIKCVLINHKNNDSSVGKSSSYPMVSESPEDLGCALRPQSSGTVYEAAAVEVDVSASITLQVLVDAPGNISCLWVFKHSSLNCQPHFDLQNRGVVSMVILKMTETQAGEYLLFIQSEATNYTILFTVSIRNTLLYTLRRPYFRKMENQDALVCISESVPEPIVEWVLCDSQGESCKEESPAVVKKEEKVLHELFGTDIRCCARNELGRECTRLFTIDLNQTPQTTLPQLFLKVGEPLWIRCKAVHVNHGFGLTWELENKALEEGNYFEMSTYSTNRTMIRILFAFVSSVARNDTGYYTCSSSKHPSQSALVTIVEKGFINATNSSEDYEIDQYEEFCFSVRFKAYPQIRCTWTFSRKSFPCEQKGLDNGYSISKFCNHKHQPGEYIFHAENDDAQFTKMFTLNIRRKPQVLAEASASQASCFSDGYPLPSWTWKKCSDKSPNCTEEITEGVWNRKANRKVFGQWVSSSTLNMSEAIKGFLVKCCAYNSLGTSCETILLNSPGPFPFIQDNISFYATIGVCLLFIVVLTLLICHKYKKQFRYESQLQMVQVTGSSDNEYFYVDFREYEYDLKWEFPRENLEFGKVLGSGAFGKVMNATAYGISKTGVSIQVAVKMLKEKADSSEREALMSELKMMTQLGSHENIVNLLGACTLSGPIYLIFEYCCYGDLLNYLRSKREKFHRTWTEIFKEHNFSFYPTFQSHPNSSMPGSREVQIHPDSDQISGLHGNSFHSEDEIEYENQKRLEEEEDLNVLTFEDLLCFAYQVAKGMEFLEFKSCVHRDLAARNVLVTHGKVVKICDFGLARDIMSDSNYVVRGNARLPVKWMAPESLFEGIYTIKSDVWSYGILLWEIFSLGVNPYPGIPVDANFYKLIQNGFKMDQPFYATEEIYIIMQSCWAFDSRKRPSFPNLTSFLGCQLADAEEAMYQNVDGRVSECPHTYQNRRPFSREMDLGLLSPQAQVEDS
- assay-method-text: Inhibition of recombinant human C-terminal FLT3 ITD mutant (571 to 993 residues) after 90 mins by mobility shift assay
Just the number, please; pIC50 means minus log10 of the concentration in mol/L.

# input I'd like to know its pIC50. The molecule in question is `Nc1ncnc2c1c(-c1ccc(Oc3ccccc3)cc1)cn2[C@H]1CC[C@H](N[C@@H](Cc2ccccc2)C(=O)O)CC1`
# output 7.62

# input May I ask what pIC50 has been recorded for `Nc1ncnc2c1c(-c1ccc(Oc3ccccc3)cc1)cn2[C@H]1CC[C@H](N2CCC[C@H]2C(=O)O)CC1` ?
# output 7.59

# input For the molecule `CC(C)C[C@H](N[C@H]1CC[C@@H](n2cc(-c3ccc(Oc4ccccc4)cc3)c3c(N)ncnc32)CC1)C(=O)O` , what pIC50 is on record?
# output 7.64

# input Report pIC50 for `CC(C)C[C@H](N[C@H]1CC[C@H](n2cc(-c3ccc(Oc4ccccc4)cc3)c3c(N)ncnc32)CC1)C(=O)O` please.
# output 7.85

# input # query: pIC50 of entry `CC(C)CCN[C@H]1CC[C@H](n2cc(-c3ccc(Oc4ccccc4)cc3)c3c(N)ncnc32)CC1`
# output 7.25

# input Any idea what pIC50 was measured for `Nc1ncnc2c1c(-c1ccc(Oc3ccccc3)cc1)cn2[C@H]1CC[C@H](N[C@@H](CO)C(=O)O)CC1` ?
# output 7.74

# input Entry under review: `Nc1ncnc2c1c(-c1ccc(Oc3ccccc3)cc1)cn2[C@H]1CC[C@@H](NCC(=O)O)CC1` . Reported pIC50?
# output 7.49

# input Query (molecule): `Nc1ncnc2c1c(-c1ccc(Oc3ccccc3)cc1)cn2[C@H]1CC[C@H](NCC(=O)O)CC1` ; field requested: pIC50
# output 7.55

Sourced from ChEMBL document CHEMBL4177609
